# credit: PubChem BioAssay (NCATS)

- Assay Comment: Stat Signaling Pathway (AID 446);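 further: ME-180 cervical cancer cells given 40 pM IL-6 alongside compound; SIE-controlled beta-lactamase reporter measured as 460/530 nm FRET emission ratio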
- Assay Setup: ME-180 (cervical carcinoma) SIE beta-lactamase reporter, IL-6 stimulated, 5 h; at 7.69 µM (top of the series) unless noted
Records with an inconclusive call do not appear. Activity calls are given as the source filed them. The call rests on the fitted dose curve; in most records, active means well fitted curve in either direction with a large enough effect (not every such curve was filed as active); inconclusive means small, poorly fitted or top-dose-only effect, or another doubt; inactive means flat fitted curve, though single readings scatter.
// classify into 1 (yes) (active), 0 (no) (inactive)

For orientation, consider the following solved cases.
N#Cc1ccccc1-c1ccc2ncnc(NCc3ccccc3)c2c1	0 (no)
Clc1ccccc1-c1cc(NCc2cccnc2)ncn1	0 (no)
O=C(c1csnn1)N1CCC2(CC1)CN(c1ncccn1)C2	0 (no)

Query :: Lab log entry: `COc1ccc(-c2nc3cnc(N(C)C)nc3n(CCc3ccccc3)c2=O)cc1` — outcome as called in the assay?
Result :: 1 (yes)

Query :: Lab log entry: `CS(=O)(=O)Nc1cccc(-c2ccc3ncnc(NCc4cccnc4)c3c2)c1` — outcome as called in the assay?
Result :: 0 (no)

Query :: Lab log entry: `COc1ccc(Oc2ncc3nc(-c4cccs4)c(=O)n(C)c3n2)cc1` — outcome as called in the assay?
Result :: 0 (no)

Query :: Lab log entry: `CC(C)(O/N=C(\C(=O)N[C@@H]1C(=O)N2C(C(=O)[O-])=C(C[n+]3ccccc3)CS[C@@H]12)c1csc(N)n1)C(=O)O` — outcome as called in the assay?
Result :: 0 (no)

Query :: Lab log entry: `FC(F)(F)c1ccccc1-c1cncnc1NCc1ccccc1` — outcome as called in the assay?
Result :: 0 (no)

Query :: Lab log entry: `Cc1cccc(CNc2cc(-c3ccoc3)ncn2)c1` — outcome as called in the assay?
Result :: 0 (no)

Query :: Lab log entry: `O=C(c1cnccn1)N1CCC2(CC1)CCN(c1ccccc1)CC2` — outcome as called in the assay?
Result :: 0 (no)

Query :: Lab log entry: `O=C(c1ccco1)N1CCC2(CC1)CCN(C(c1ccccc1)c1ccccc1)CC2` — outcome as called in the assay?
Result :: 0 (no)

Query :: Lab log entry: `CS(=O)(=O)Nc1cccc(-c2cc(NCc3cccs3)ncn2)c1` — outcome as called in the assay?
Result :: 0 (no)

Query :: Lab log entry: `COc1ccc(CNc2ncncc2-c2ccc(N(C)C)cc2)c(OC)c1` — outcome as called in the assay?
Result :: 0 (no)

Query :: Lab log entry: `CN(C)C(=O)c1ccc(-c2nc(NCc3ccccc3)c3ccccc3n2)cc1` — outcome as called in the assay?
Result :: 0 (no)

Query :: Lab log entry: `COc1ccc(C(=O)N2CCC3(CCN(Cc4nccs4)CC3)CC2)cc1` — outcome as called in the assay?
Result :: 0 (no)

Query :: Lab log entry: `N#Cc1cccc(NC(=O)N2CCCC3(CCN(C(=O)c4cccc(F)c4)CC3)C2)c1` — outcome as called in the assay?
Result :: 0 (no)

Query :: Lab log entry: `O=c1cnc2cnc(N3CCOCC3)nc2n1C[C@H]1CCCO1` — outcome as called in the assay?
Result :: 0 (no)

Query :: Lab log entry: `COc1cccc(-c2cc(NCc3ccc(OC)cc3OC)ncn2)c1` — outcome as called in the assay?
Result :: 0 (no)

Query :: Lab log entry: `COc1ncc2nc(C)c(=O)n(C[C@H]3CCCO3)c2n1` — outcome as called in the assay?
Result :: 0 (no)
